- PROTOCOL_TEXT: Label-free microscale thermophoresis (MST) melanin binding assay
- MEASUREMENT_SETUP: 0.5 mg/mL (12.5 µM) melanin nanoparticles, PBS pH 7.4, room temperature; 68% confidence; initial fluorescence mode for compounds marked *, otherwise MST mode; read-out: Kd ± Kd Confidence (MST)
pKd: −log10 of the molar value.

>  <COMPOUND>
COc1cc2nc(N3CCN(C(=O)C4CCCO4)CC3)nc(N)c2cc1OC (stereo not shown)

>  <pKd>
4.54

$$$$
>  <COMPOUND>
CC(C)(C)NCC(O)COc1cccc2c1CC(O)C(O)C2 (stereo not shown)

>  <pKd>
3.70

$$$$
>  <COMPOUND>
C[C@H]1COc2c(N3CCN(C)CC3)c(F)cc3c(=O)c(C(=O)O)cn1c23

>  <pKd>
4.33

$$$$
>  <COMPOUND>
COc1ccc(Cc2nccc3cc(OC)c(OC)cc23)cc1OC

>  <pKd>
4.55

$$$$
>  <COMPOUND>
CCN(CC)CCCC(C)Nc1ccnc2cc(Cl)ccc12 (stereo not shown)

>  <pKd>
6.10

$$$$
>  <COMPOUND>
CN(Cc1cnc2nc(N)nc(N)c2n1)c1ccc(C(=O)N[C@@H](CCC(=O)O)C(=O)O)cc1 [Methotrexate]

>  <pKd>
2.46

$$$$
>  <COMPOUND>
CC(C)(C)NC[C@H](O)COc1nsnc1N1CCOCC1

>  <pKd>
3.59

$$$$

---

Attribute: fraction unbound
- Test system: melanin
- PROTOCOL_TEXT: Prediction of unbound ligand fraction in vivo (human RPE-choroid)
- MEASUREMENT_SETUP: human, human RPE-choroid (predicted), 34.8 mg/mL melanin

>  <MOLECULE>
CC1(C)S[C@@H]2[C@H](NC(=O)Cc3ccccc3)C(=O)N2[C@H]1C(=O)O [Penicillin G]

>  <fraction unbound>
0.0029

$$$$
>  <MOLECULE>
CN(Cc1cnc2nc(N)nc(N)c2n1)c1ccc(C(=O)N[C@@H](CCC(=O)O)C(=O)O)cc1 [Methotrexate]

>  <fraction unbound>
0.54

$$$$

---

- PROTOCOL_TEXT: Prediction of unbound ligand fraction in vivo (human RPE-choroid)
- MEASUREMENT_SETUP: class by predicted fraction unbound in vivo, human RPE-choroid
ASSAY_ENDPOINT: Melanin binding class based on traditional assay

>  <COMPOUND>
C[C@H]1COc2c(N3CCN(C)CC3)c(F)cc3c(=O)c(C(=O)O)cn1c23

>  <TEST_RESULT>
high

$$$$
>  <COMPOUND>
CC(C)NCC(O)COc1cccc2ccccc12 (centres unmarked)

>  <TEST_RESULT>
high

$$$$
>  <COMPOUND>
CC(C)(C)NCC(O)COc1cccc2c1CC(O)C(O)C2 (centres unmarked)

>  <TEST_RESULT>
intermediate

$$$$
>  <COMPOUND>
COc1cc2nc(N3CCN(C(=O)C4CCCO4)CC3)nc(N)c2cc1OC (centres unmarked)

>  <TEST_RESULT>
extreme

$$$$
>  <COMPOUND>
CN(Cc1cnc2nc(N)nc(N)c2n1)c1ccc(C(=O)N[C@@H](CCC(=O)O)C(=O)O)cc1 [Methotrexate]

>  <TEST_RESULT>
low

$$$$
>  <COMPOUND>
CC(C)(C)NC[C@H](O)COc1nsnc1N1CCOCC1

>  <TEST_RESULT>
intermediate

$$$$
>  <COMPOUND>
COc1ccc(Cc2nccc3cc(OC)c(OC)cc23)cc1OC

>  <TEST_RESULT>
high

$$$$
>  <COMPOUND>
CCN(CC)CCCC(C)Nc1ccnc2cc(Cl)ccc12 (centres unmarked)

>  <TEST_RESULT>
extreme

$$$$
